target: Delta-type opioid receptor (Homo sapiens); assay: Displacement of [3H]DPDPE from human delta opioid receptor expressed in HN9.10 cells
Sequence (P41143 whole entry): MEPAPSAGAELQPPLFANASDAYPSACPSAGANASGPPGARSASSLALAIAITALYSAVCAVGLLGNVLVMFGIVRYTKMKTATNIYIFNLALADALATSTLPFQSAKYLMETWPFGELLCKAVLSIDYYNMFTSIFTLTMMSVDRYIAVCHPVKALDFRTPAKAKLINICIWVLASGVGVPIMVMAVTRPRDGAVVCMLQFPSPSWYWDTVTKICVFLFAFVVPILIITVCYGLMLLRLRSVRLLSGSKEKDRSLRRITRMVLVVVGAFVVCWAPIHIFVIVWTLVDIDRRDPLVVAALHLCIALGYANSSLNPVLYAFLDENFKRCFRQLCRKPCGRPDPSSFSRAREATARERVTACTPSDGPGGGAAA
# pKi values compiled below
Kindly note that pKi refers to -log10 of the concentration in mol/L and answer with the value alone.

Take a look at these entries with their results.
CCCC[C@@H](C(=O)N[C@@H](CC(=O)O)C(=O)N[C@@H](Cc1ccccc1)C(N)=O)N(C)C(=O)[C@H](Cc1c[nH]c2ccccc12)NC(=O)CNC(=O)[C@@H]1CCCN1C(=O)[C@@H](N)Cc1ccc(O)cc1 : 5.82
CCCC[C@@H](C(=O)N[C@@H](CC(=O)O)C(=O)N[C@@H](Cc1ccccc1)C(N)=O)N(C)C(=O)[C@H](Cc1c[nH]c2ccccc12)NC(=O)CNC(=O)[C@H]1CCCN1C(=O)[C@@H](N)Cc1ccc(O)cc1 : 7.07
CCCC[C@@H](NC(=O)[C@@H](N)Cc1ccc(O)cc1)C(=O)NCC(=O)N[C@H](Cc1c[nH]c2ccccc12)C(=O)N(C)[C@@H](CCCC)C(=O)N[C@@H](CC(=O)O)C(=O)N[C@@H](Cc1ccccc1)C(N)=O : 6.51

Next compound, pKi to be filled in.
Q: Sample `CCCC[C@@H](C(=O)N[C@@H](CC(=O)O)C(=O)N[C@@H](Cc1ccccc1)C(N)=O)N(C)C(=O)[C@H](Cc1c[nH]c2ccccc12)NC(=O)CNC(=O)[C@@H](Cc1ccccc1)NC(=O)[C@H](Cc1ccc(O)cc1)NC(=O)[C@@H](N)CC(=O)O` — what was its pKi?
A: 6.60

* * *

molecular target: Mu-type opioid receptor (Rattus norvegicus, UniProt P33535); assay: Displacement of [3H]DAMGO from rat mu opioid receptor expressed in HN9.10 cells; type: cell-based
Sequence (P33535 whole entry): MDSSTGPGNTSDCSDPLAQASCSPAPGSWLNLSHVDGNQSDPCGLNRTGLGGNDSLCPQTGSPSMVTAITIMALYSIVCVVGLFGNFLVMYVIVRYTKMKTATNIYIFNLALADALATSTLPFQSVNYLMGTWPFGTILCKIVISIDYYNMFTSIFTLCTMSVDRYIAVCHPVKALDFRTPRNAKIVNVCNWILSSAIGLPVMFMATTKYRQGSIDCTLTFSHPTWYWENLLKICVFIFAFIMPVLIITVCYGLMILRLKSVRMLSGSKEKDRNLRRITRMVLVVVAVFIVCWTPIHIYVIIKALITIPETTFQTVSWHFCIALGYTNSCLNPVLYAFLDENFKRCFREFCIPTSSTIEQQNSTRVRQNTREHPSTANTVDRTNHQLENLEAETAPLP
Where a SMILES comes first, the peptide text is derived from it. [ ]: non-standard residue; d: D form. NMeNle = CCCC[C@H](NC)C(=O)O
# pIC50 values compiled below
Kindly note that pIC50 refers to -log10 of the concentration in mol/L and answer with the value alone.

CCCC[C@H](NC(=O)[C@@H](Cc1c[nH]c2ccccc12)NC(=O)CNC(=O)[C@@H](C)NC(=O)[C@@H](N)Cc1ccc(O)cc1)C(=O)N[C@@H](CC(=O)O)C(=O)N[C@@H](Cc1ccccc1)C(N)=O : 5.89
CCCC[C@@H](NC(=O)[C@@H](N)Cc1ccc(O)cc1)C(=O)NCC(=O)N[C@H](Cc1c[nH]c2ccccc12)C(=O)N(C)[C@@H](CCCC)C(=O)N[C@@H](CC(=O)O)C(=O)N[C@@H](Cc1ccccc1)C(N)=O : 5.54
CCCC[C@H](NC(=O)[C@H](Cc1c[nH]c2ccccc12)NC(=O)CNC(=O)[C@@H](C)NC(=O)[C@@H](N)Cc1ccc(O)cc1)C(=O)N[C@@H](CC(=O)O)C(=O)N[C@@H](Cc1ccccc1)C(N)=O : 7.74

Q: Sample `CCCC[C@H](NC(=O)[C@H](Cc1c[nH]c2ccccc12)NC(=O)CNC(=O)[C@@H](CCCC)NC(=O)[C@@H](N)Cc1ccc(O)cc1)C(=O)N[C@@H](CC(=O)O)C(=O)N[C@@H](Cc1ccccc1)C(N)=O` — what was its pIC50?
A: 7.22

Q: Sample `CCCC[C@H](NC(=O)[C@@H](Cc1c[nH]c2ccccc12)NC(=O)CNC(=O)[C@@H](Cc1ccccc1)NC(=O)[C@@H](N)Cc1ccc(O)cc1)C(=O)N[C@@H](CC(=O)O)C(=O)N[C@@H](Cc1ccccc1)C(N)=O` — what was its pIC50?
A: 6.15

Q: Sample CCCC[C@@H](C(=O)N[C@@H](CC(=O)O)C(=O)N[C@@H](Cc1ccccc1)C(N)=O)N(C)C(=O)[C@H](Cc1c[nH]c2ccccc12)NC(=O)CNC(=O)CNC(=O)[C@@H](N)Cc1ccc(O)cc1 (H-YGGW[NMeNle]DF-NH2) — what was its pIC50?
A: 6.26

Q: Sample `CCCC[C@@H](C(=O)N[C@@H](CC(=O)O)C(=O)N[C@@H](Cc1ccccc1)C(N)=O)N(C)C(=O)[C@@H](Cc1c[nH]c2ccccc12)NC(=O)CNC(=O)[C@@H](C)NC(=O)[C@@H](N)Cc1ccc(O)cc1` — what was its pIC50?
A: 7.30

Q: Sample `CCCC[C@@H](C(=O)N[C@@H](CC(=O)O)C(=O)N[C@@H](Cc1ccccc1)C(N)=O)N(C)C(=O)[C@H](Cc1c[nH]c2ccccc12)NC(=O)CNC(=O)[C@@H](C)NC(=O)[C@@H](N)Cc1ccc(O)cc1` — what was its pIC50?
A: 7.05

Q: Sample `CCCC[C@@H](C(=O)N[C@@H](CC(=O)O)C(=O)N[C@@H](Cc1ccccc1)C(N)=O)N(C)C(=O)[C@H](Cc1c[nH]c2ccccc12)NC(=O)CNC(=O)[C@@H](Cc1ccccc1)NC(=O)[C@H](Cc1ccc(O)cc1)NC(=O)[C@@H](N)CC(=O)O` — what was its pIC50?
A: 4.94
